- tested_on: UniProtKB P06276
- Sequence (P06276 whole entry): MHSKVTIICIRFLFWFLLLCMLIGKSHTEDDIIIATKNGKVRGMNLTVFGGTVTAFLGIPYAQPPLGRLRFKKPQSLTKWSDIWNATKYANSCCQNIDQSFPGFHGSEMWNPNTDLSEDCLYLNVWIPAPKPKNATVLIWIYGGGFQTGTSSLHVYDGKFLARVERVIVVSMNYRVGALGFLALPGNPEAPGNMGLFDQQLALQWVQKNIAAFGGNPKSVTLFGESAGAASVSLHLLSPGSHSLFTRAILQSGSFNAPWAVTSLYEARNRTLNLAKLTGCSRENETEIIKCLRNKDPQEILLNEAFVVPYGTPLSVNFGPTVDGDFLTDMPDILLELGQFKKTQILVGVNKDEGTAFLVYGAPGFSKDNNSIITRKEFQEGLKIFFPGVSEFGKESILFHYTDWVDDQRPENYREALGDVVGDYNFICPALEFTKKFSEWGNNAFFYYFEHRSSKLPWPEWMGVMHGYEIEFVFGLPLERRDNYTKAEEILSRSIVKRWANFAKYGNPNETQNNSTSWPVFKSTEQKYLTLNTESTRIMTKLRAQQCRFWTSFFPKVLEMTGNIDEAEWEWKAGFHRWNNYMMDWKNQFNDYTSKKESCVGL
property_label: pIC50
Reminder that pIC50 is minus the log10 of a molar concentration.

Look up pIC50 with UniProtKB P06276 for this molecule: CON(C)C(=O)Oc1ccccc1C(=O)NCCc1c[nH]c2ccccc12
5.74

====

Recorded pIC50, one value per entry.
- tested_on: Cholinesterase (Equus caballus)
- Sequence (P81908 whole entry): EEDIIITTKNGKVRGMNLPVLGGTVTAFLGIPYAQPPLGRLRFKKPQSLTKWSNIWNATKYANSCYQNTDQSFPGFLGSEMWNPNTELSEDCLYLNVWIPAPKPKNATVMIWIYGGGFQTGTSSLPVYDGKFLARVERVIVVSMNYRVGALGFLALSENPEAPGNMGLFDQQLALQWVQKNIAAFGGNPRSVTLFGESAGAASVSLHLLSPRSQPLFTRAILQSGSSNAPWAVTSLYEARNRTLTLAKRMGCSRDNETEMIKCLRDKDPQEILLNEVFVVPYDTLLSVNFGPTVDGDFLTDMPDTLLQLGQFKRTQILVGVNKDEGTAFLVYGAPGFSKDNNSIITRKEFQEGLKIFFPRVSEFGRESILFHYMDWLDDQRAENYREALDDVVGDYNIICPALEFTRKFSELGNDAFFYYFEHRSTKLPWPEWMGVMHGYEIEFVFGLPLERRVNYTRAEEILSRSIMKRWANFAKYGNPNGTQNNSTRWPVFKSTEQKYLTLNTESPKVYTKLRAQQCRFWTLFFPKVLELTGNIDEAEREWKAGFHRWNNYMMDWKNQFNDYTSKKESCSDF
- protocol_text: Inhibition of equine serum BChE by Ellman's method
pIC50: −log10 of the molar value.

Use the examples below as a reference point.
{"compound": "CN1CCN(c2ccc(-c3nc4ccccc4c(=O)[nH]3)cc2)CC1", "tested_on": "Cholinesterase (Equus caballus)", "property_label": "pIC50", "result": "< 4.70"}
{"compound": "COc1cc(OC)c2c(=O)[nH]c(-c3ccc(N4CCN(C)CC4)cc3)nc2c1", "tested_on": "Cholinesterase (Equus caballus)", "property_label": "pIC50", "result": "< 4.70"}
{"compound": "O=c1[nH]c(C2CCN(Cc3ccccc3)CC2)nc2ccc([N+](=O)[O-])cc12", "tested_on": "Cholinesterase (Equus caballus)", "property_label": "pIC50", "result": "< 4.70"}
{"compound": "COc1cc(OC)c2c(=O)[nH]c(C3CCN(Cc4ccccc4)CC3)nc2c1", "tested_on": "Cholinesterase (Equus caballus)", "property_label": "pIC50", "result": 4.43}
{"compound": "COc1cc(OC)c2c(=O)[nH]c(-c3cn(Cc4ccccc4)cn3)nc2c1", "tested_on": "Cholinesterase (Equus caballus)", "property_label": "pIC50", "result": 6.08}
{"compound": "CN1CCN(c2ccc(-c3nc4ccc([N+](=O)[O-])cc4c(=O)[nH]3)cc2)CC1", "tested_on": "Cholinesterase (Equus caballus)", "property_label": "pIC50", "result": "< 4.00"}
{"compound": "CN1CCN(c2ccc(-c3nc4ccc(Br)cc4c(=O)[nH]3)cc2)CC1", "tested_on": "Cholinesterase (Equus caballus)", "property_label": "pIC50", "result": "< 4.70"}
{"compound": "COc1cc(OC)c2c(=O)[nH]c(-c3nc[nH]c3C)nc2c1", "tested_on": "Cholinesterase (Equus caballus)", "property_label": "pIC50", "result": "< 4.70"}

# input for lookup
So what's the measured pIC50 for this one? COc1cc(-c2nc3ccc(NCC4CCN(Cc5ccccc5)CC4)cc3c(=O)[nH]2)cc(OC)c1OC
4.95

====

- tested_on: UniProtKB O42275
- Sequence (O42275 whole entry): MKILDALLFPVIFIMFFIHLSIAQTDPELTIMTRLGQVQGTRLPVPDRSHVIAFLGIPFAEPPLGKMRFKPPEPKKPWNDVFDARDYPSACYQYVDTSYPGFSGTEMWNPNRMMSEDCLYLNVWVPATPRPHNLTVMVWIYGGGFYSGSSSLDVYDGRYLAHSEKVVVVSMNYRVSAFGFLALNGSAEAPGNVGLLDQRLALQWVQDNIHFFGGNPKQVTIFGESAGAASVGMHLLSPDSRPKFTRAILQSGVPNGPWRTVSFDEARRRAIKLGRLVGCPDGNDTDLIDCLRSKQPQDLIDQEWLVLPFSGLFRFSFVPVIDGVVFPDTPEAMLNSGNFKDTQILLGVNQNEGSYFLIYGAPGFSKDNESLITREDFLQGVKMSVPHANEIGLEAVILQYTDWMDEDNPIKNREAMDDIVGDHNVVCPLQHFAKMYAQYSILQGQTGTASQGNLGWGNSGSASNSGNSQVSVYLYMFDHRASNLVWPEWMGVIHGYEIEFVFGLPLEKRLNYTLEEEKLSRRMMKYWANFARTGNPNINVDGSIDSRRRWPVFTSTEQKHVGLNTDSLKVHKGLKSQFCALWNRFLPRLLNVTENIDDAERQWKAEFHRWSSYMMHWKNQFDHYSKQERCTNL
pIC50: −log10 of the molar value.
Parameter threshold = 5. Response is 1 (yes) when pIC50 meets or exceeds it, else 0 (no).

Study these solved cases before continuing.
{"compound": "COc1cc(OC)c2c(=O)[nH]c(-c3nc[nH]c3C)nc2c1", "group_label": "0 (no)"}
{"compound": "COc1cc(OC)c2c(=O)[nH]c(-c3cn(Cc4ccccc4)cn3)nc2c1", "group_label": "1 (yes)"}
{"compound": "CN1CCN(c2ccc(-c3nc4ccc([N+](=O)[O-])cc4c(=O)[nH]3)cc2)CC1", "group_label": "1 (yes)"}
{"compound": "COc1cc(OC)c2c(=O)[nH]c(-c3ccc(N4CCN(C)CC4)cc3)nc2c1", "group_label": "1 (yes)"}
{"compound": "COc1cc(-c2nc3ccc(NCC4CCN(Cc5ccccc5)CC4)cc3c(=O)[nH]2)cc(OC)c1OC", "group_label": "1 (yes)"}
{"compound": "CN1CCN(c2ccc(-c3nc4ccccc4c(=O)[nH]3)cc2)CC1", "group_label": "0 (no)"}

Does pIC50 meet or surpass 5 for O=c1[nH]c(C2CCN(Cc3ccccc3)CC2)nc2ccc([N+](=O)[O-])cc12 ?
1 (yes)

Does pIC50 meet or surpass 5 for CN1CCN(c2ccc(-c3nc4ccc(Br)cc4c(=O)[nH]3)cc2)CC1 ?
0 (no)
